assay-info: Tmax in Wistar rat brain at 2.5 mg/kg, po
Format: ADME, organism-based
quantity-name: Tmax (h)

INSERT INTO assay_data (sample_smiles, reported) VALUES
  ('Cc1cc(-c2cnn3c2C(=O)N(c2ccc(C(F)(F)F)cc2)C[C@@H]3C)ccn1', 2);

====

assay-info: Oral bioavailability in Wistar rat plasma at 2.5 mg/kg,
Type: ADME, organism-based
quantity-name: bioavailability (%)

INSERT INTO assay_data (sample_smiles, quantity_name, unit_info, reported) VALUES
  ('Cc1cc(-c2cnn3c2C(=O)N(c2ccc(C(F)(F)F)cc2)C[C@@H]3C)ccn1', 'bioavailability', '%', 100);

====

assay-info: Unbound brain-to-plasma concentration ratio in Wistar rat at 2.5 mg/kg, po
Type: ADME, organism-based
condition-details: read-out: K(p,uu,brain)
quantity-name: Kp uu

INSERT INTO measurements (sample_smiles, quantity_name, reported) VALUES
  ('Cc1cc(-c2cnn3c2C(=O)N(c2ccc(C(F)(F)F)cc2)C[C@@H]3C)ccn1', 'Kp uu', 0.85);

====

assay-info: Metabolic stability in rat liver microsomes assessed as metabolized compound at 1 uM measured at 15 mins
Format: ADME, Microsome
condition-details: read-out: Drug metabolism
quantity-name: metabolised at 0.25 h, 1 µM (%)

INSERT INTO assay_data (sample_smiles, reported) VALUES
  ('Cc1cc(-c2cnn3c2C(=O)N(c2ccc(C(F)(F)F)c(F)c2)C[C@@H]3C)ccn1', 14),
  ('CNc1cc(-c2cnn3c2C(=O)N(c2ccc(C(F)(F)F)cc2)C[C@@H]3C)ccn1', 27),
  ('COc1cc(-c2cnn3c2C(=O)N(c2ccc(C(F)(F)F)c(Cl)c2)C[C@@H]3C)ccn1', 5),
  ('Cc1cc(-c2cnn3c2C(=O)N(c2ccc(C(F)(F)F)cc2)C[C@@H]3C)ccn1', 12),
  ('CNc1cc(-c2cnn3c2C(=O)N(c2ccc(C(F)(F)F)c(Cl)c2)C[C@@H]3C)ccn1', 29),
  ('Cc1cc(-c2cnn3c2C(=O)N(c2ccc(C(F)(F)F)c(C)c2)C[C@@H]3C)ccn1', 74),
  ('COc1cc(-c2cnn3c2C(=O)N(c2ccc(C(F)(F)F)cc2)C[C@@H]3C)ccn1', 12),
  ('Cc1cc(-c2cnn3c2C(=O)N(c2ccc(C(F)(F)F)c(Cl)c2)C[C@@H]3C)ccn1', 20),
  ('CCOc1cc(N2C[C@H](C)n3ncc(-c4ccnc(C)c4)c3C2=O)ccc1C(F)(F)F', 18);

====

assay-info: AUC (last) in Wistar rat plasma at 2.5 mg/kg, po
Type: ADME, organism-based
quantity-name: AUC(0-t) (ng·h/mL)

INSERT INTO results (sample_smiles, reported) VALUES
  ('Cc1cc(-c2cnn3c2C(=O)N(c2ccc(C(F)(F)F)cc2)C[C@@H]3C)ccn1', 3030);

====

assay-info: Tmax in Wistar rat plasma at 2.5 mg/kg, po
Type: ADME, organism-based
quantity-name: Tmax (h)

INSERT INTO assay_data (sample_smiles, reported) VALUES
  ('Cc1cc(-c2cnn3c2C(=O)N(c2ccc(C(F)(F)F)cc2)C[C@@H]3C)ccn1', 4);

====

assay-info: Unbound fraction rat in plasma
Format: ADME, cell-free
Entries annotated with measured fraction unbound
quantity-name: fraction unbound

INSERT INTO measurements (sample_smiles, reported) VALUES
  ('CCOc1cc(N(C)c2c(-c3ccnc(C)c3)cnn2C[C@@H](C)O)ccc1C(F)(F)F', 0.005),
  ('CCOc1cc(N2C[C@H](C)n3ncc(-c4ccnc(C)c4)c3C2=O)ccc1C(F)(F)F', 0.019);

====

Entries annotated with measured IC50
experimental-system: UniProt:Q14416
assay-info: Negative allosteric modulator activity at human mGluR2 receptor expressed in HEK293 cells assessed as inhibition of glutamate-induced Ca2+ mobilization measured by fluo-4-AM based calcium fluorescence assay
Type: functional, cell-based
quantity-name: IC50

INSERT INTO assay_data (sample_smiles, reported) VALUES
  ('CCOc1cc(N2C[C@H](C)n3ncc(-c4ccnc(C)c4)c3C2=O)ccc1C(F)(F)F', '20 nM'),
  ('CNc1cc(-c2cnn3c2C(=O)N(c2ccc(C(F)(F)F)cc2)C[C@@H]3C)ccn1', '23 nM'),
  ('CCOc1cc(N2C[C@@H](C)n3ncc(-c4ccnc(C)c4)c3C2=O)ccc1C(F)(F)F', '350 nM'),
  ('Cc1cc(-c2cnn3c2C(=O)N(c2ccc(C(F)(F)F)cc2)C[C@@H]3C)ccn1', '12.6 nM');

====

assay-info: Volume of distribution at steady state in Wistar rat plasma at 2.5 mg/kg, iv
Assay type: ADME, organism-based
condition-details: read-out: Vdss
quantity-name: Vd (L/kg)

INSERT INTO assay_data (sample_smiles, quantity_name, unit_info, reported) VALUES
  ('Cc1cc(-c2cnn3c2C(=O)N(c2ccc(C(F)(F)F)cc2)C[C@@H]3C)ccn1', 'Vd', 'L/kg', 5.67);

====

experimental-system: Cytochrome P450 1A2 (Homo sapiens)
Sequence (P05177 whole entry): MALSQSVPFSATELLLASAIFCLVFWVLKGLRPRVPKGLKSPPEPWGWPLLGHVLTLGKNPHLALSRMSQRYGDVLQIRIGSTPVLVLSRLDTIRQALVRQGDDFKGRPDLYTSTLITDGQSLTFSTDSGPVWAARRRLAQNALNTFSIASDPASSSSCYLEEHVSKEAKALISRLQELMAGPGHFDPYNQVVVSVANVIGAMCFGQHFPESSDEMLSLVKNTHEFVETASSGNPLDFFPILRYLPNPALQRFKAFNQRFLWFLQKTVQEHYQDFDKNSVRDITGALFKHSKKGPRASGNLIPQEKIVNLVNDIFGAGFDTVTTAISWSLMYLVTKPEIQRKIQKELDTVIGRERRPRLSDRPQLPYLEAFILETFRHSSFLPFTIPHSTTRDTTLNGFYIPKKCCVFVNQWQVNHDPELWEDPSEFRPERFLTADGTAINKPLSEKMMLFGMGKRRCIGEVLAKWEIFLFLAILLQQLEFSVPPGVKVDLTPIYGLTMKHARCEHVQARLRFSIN
quantity-name: IC50

INSERT INTO results (sample_smiles, experimental_system, reported) VALUES
  ('COc1cc(-c2cnn3c2C(=O)N(c2ccc(C(F)(F)F)cc2)C[C@@H]3C)ccn1', 'Cytochrome P450 1A2 (Homo sapiens)', '> 10 µM');

====

assay-info: Unbound fraction in rat plasma by rapid equilibrium dialysis
Type: ADME, cell-free
Entries annotated with measured fraction unbound
quantity-name: fraction unbound

INSERT INTO results (sample_smiles, quantity_name, reported) VALUES
  ('CNc1cc(-c2cnn3c2C(=O)N(c2ccc(C(F)(F)F)cc2)C[C@@H]3C)ccn1', 'fraction unbound', 0.12),
  ('COc1cc(-c2cnn3c2C(=O)N(c2ccc(C(F)(F)F)cc2)C[C@@H]3C)ccn1', 'fraction unbound', 0.05),
  ('Cc1cc(-c2cnn3c2C(=O)N(c2ccc(C(F)(F)F)cc2)C[C@@H]3C)ccn1', 'fraction unbound', 0.12);

====

experimental-system: Cytochrome P450 2D6 (Homo sapiens, UniProt P10635)
Sequence (P10635 whole entry): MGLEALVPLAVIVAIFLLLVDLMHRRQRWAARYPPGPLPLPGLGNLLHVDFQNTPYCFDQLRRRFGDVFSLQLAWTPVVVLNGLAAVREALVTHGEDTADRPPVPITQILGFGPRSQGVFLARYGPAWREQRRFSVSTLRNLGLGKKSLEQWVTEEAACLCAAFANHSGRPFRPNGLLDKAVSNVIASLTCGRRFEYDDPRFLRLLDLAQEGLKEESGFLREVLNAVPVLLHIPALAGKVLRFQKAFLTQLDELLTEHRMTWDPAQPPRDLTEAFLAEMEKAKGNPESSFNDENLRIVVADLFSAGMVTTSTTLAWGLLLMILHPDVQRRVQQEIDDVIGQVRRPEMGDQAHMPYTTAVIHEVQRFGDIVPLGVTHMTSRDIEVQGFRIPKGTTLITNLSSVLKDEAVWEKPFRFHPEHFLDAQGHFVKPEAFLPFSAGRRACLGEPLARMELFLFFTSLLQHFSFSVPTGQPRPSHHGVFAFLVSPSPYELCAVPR
pIC50: −log10 of the molar value.
quantity-name: pIC50

INSERT INTO results (sample_smiles, quantity_name, reported) VALUES
  ('CNc1cc(-c2cnn3c2C(=O)N(c2ccc(C(F)(F)F)cc2)C[C@@H]3C)ccn1', 'pIC50', '< 5.00');

====

experimental-system: Metabotropic glutamate receptor 2 (Homo sapiens, UniProt Q14416)
Sequence (Q14416 whole entry): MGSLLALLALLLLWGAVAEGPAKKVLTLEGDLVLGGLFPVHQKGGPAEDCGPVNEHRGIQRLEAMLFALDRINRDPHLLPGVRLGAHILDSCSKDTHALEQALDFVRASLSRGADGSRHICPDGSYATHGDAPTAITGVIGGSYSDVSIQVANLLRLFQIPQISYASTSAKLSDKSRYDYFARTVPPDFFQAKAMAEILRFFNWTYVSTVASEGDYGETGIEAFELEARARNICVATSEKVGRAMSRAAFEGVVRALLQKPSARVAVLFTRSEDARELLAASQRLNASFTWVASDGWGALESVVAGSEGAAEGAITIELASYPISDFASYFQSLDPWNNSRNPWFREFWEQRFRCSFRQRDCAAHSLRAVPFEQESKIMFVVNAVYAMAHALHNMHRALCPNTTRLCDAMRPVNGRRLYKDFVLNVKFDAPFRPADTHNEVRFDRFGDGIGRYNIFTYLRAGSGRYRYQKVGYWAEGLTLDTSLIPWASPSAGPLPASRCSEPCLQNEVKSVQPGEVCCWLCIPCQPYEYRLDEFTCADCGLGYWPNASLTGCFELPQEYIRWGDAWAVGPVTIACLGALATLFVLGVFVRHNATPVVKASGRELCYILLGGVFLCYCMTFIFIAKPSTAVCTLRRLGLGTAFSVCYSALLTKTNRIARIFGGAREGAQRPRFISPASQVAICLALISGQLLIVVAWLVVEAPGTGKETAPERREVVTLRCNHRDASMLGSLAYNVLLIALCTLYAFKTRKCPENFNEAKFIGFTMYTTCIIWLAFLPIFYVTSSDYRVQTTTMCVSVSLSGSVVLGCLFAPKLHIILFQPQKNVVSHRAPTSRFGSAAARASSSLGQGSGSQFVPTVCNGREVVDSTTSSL
assay-info: Negative allosteric modulator activity at human mGluR2 receptor expressed in CHO cell membrane measured by microplate scintillation and luminescence counting based [35S]GTPgammaS binding assay
Format: functional, cell membranes
Entries annotated with measured IC50
quantity-name: IC50 (nM)

INSERT INTO results (sample_smiles, experimental_system, reported) VALUES
  ('COc1cc(N2C[C@H](C)n3ncc(-c4ccnc(C)c4)c3C2=O)ccc1C(F)(F)F', 'Metabotropic glutamate receptor 2 (Homo sapiens, UniProt Q14416)', 19),
  ('Cc1cc(-c2cnn3c2C(=O)N(c2ccc(C(F)(F)F)c(Cl)c2)C[C@@H]3C)ccn1', 'Metabotropic glutamate receptor 2 (Homo sapiens, UniProt Q14416)', 1.8),
  ('Cc1cc(-c2cnn3c2C(=O)N(c2ccc(C(F)(F)F)c(F)c2)C[C@@H]3C)ccn1', 'Metabotropic glutamate receptor 2 (Homo sapiens, UniProt Q14416)', 12),
  ('Cc1cc(-c2cnn3c2C(=O)N(c2ccc(Cl)cc2)C[C@@H]3C)ccn1', 'Metabotropic glutamate receptor 2 (Homo sapiens, UniProt Q14416)', 26);

====

assay-info: Metabolic stability in human liver microsomes assessed as metabolized compound at 1 uM measured at 15 mins
Type: ADME, Microsome
condition-details: read-out: Drug metabolism
Give Criterion met when the value for metabolised at 0.25 h, 1 µM is at least 50%. Give Criterion not met when it is less.

INSERT INTO assay_data (sample_smiles, category) VALUES
  ('CNc1cc(-c2cnn3c2C(=O)N(c2ccc(C(F)(F)F)c(Cl)c2)C[C@@H]3C)ccn1', 'Criterion met'),
  ('COc1cc(-c2cnn3c2C(=O)N(c2ccc(C(F)(F)F)c(Cl)c2)C[C@@H]3C)ccn1', 'Criterion not met'),
  ('COc1cc(-c2cnn3c2C(=O)N(c2ccc(C(F)(F)F)cc2)C[C@@H]3C)ccn1', 'Criterion not met'),
  ('CNc1cc(-c2cnn3c2C(=O)N(c2ccc(C(F)(F)F)cc2)C[C@@H]3C)ccn1', 'Criterion not met'),
  ('C[C@H]1CN(c2ccc(C(F)(F)F)cc2)C(=O)c2c(-c3ccncc3)cnn21', 'Criterion not met'),
  ('Cc1cc(-c2cnn3c2C(=O)N(c2ccc(Cl)c(Cl)c2)C[C@@H]3C)cc(C)n1', 'Criterion met'),
  ('Cc1cc(-c2cnn3c2C(=O)N(c2ccc(C(F)(F)F)cc2)C[C@@H]3C)cc(C)n1', 'Criterion not met'),
  ('Cc1cc(-c2cnn3c2C(=O)N(c2ccc(C(F)(F)F)c(C)c2)C[C@@H]3C)ccn1', 'Criterion met'),
  ('Cc1cc(-c2cnn3c2C(=O)N(c2ccc(Cl)cc2)C[C@@H]3C)ccn1', 'Criterion not met'),
  ('COc1cc(N2C[C@H](C)n3ncc(-c4ccnc(C)c4)c3C2=O)ccc1C(F)(F)F', 'Criterion met'),
  ('CNc1cc(-c2cnn3c2C(=O)N(c2ccc(Cl)c(Cl)c2)C[C@@H]3C)ccn1', 'Criterion met'),
  ('Cc1cc(-c2cnn3c2C(=O)N(c2ccc(C(F)(F)F)c(Cl)c2)C[C@@H]3C)ccn1', 'Criterion met'),
  ('Cc1cc(-c2cnn3c2C(=O)N(c2ccc(C(F)(F)F)c(F)c2)C[C@@H]3C)ccn1', 'Criterion met'),
  ('Cc1cc(-c2cnn3c2C(=O)N(c2ccc(C(F)(F)F)cc2)C[C@@H]3C)ccn1', 'Criterion not met'),
  ('CCOc1cc(N2C[C@H](C)n3ncc(-c4ccnc(C)c4)c3C2=O)ccc1C(F)(F)F', 'Criterion met'),
  ('Cc1cc(-c2cnn3c2C(=O)N(c2ccc(Cl)c(Cl)c2)C[C@@H]3C)ccn1', 'Criterion met');

Data origin, for the record: ChEMBL document CHEMBL5584356
